assay name: Solubility measurements (solvent aliquot addition, visual inspection)
Format: physicochemical
condition label: 1,4-dioxane, organic solvent or mixture, thermodynamic from solid, 1,4-Dioxane, Ambient; read-out: Approximate Solubility
Where a name gives a salt, the structure may show the parent alone.

{"compound": "CC(C)(C)c1cc(NC(=O)Nc2ccc(-c3cn4c(n3)sc3cc(OCCN5CCOCC5)ccc34)cc2)no1 [Form A of the HCl salt of Compound B1]", "solubility": "< 2000 µg/mL"}

###

assay name: Solubility measurements (solvent aliquot addition, visual inspection)
Assay type: physicochemical
condition label: trifluorotoluene, organic solvent or mixture, thermodynamic from solid, Trifluorotoluene (TFT), Ambient; read-out: Approximate Solubility
Counter-ions that a name gives are not always drawn.

{"molecule": "CC(C)(C)c1cc(NC(=O)Nc2ccc(-c3cn4c(n3)sc3cc(OCCN5CCOCC5)ccc34)cc2)no1 [Form A of the HCl salt of Compound B1]", "solubility": "< 2000 µg/mL"}
